Test: Metabolic stability in human liver microsomes
Conditions: human, microsomes
Measured attribute: remaining at 5 min, 1 μM (%)
Report the value in % with no unit label.

**Query** Please report the recorded remaining at 5 min, 1 μM for C[C@]12CC[C@H]3[C@@H](CCC4=CC(=O)CC[C@@]43C)[C@@H]1CC[C@@H]2O [Testosterone] .
**Result** 78.2

----------
Assay: Metabolic stability in human liver microsomes
Details: human, microsomes
Measured attribute: microsomal CLint at 1 μM (µL/min/mg)
Report the value in µL/min/mg with no unit label.

**Query** Please report the recorded microsomal CLint at 1 μM for COc1ccc(S(=O)(=O)N2C3CN(C(=O)OCc4ccccc4)CC2(C(=O)NO)C3)cc1 (stereo not shown) .
**Result** 38.1
